# Lookup of reported pIC50 keyed by entry
System: BJ
Assay: Cytotoxicity against human BJ cells assessed as reduction in cell viability after 72 hrs by calcein-AM staining based fluorescence analysis
Recall that pIC50 is obtained by taking minus log10 of the concentration measured in molar.

Check out these entries, answers already filled in.
1. Cc1ccc(NC(=O)Cn2cc(/C=N/c3c(C)n(C)n(-c4ccccc4)c3=O)c3ccccc32)cc1: 4.31
2. CCOC(=O)c1ccc(NC(=O)Cn2cc(/C=N/c3c(C)n(C)n(-c4ccccc4)c3=O)c3ccccc32)cc1: 4.30
3. COc1ccc(NC(=O)Cn2cc(/C=N/c3c(C)n(C)n(-c4ccccc4)c3=O)c3ccccc32)cc1: 4.30

Proceeding to the next compound to report its pIC50.
Please give the measured pIC50 for this compound: Cc1c(/N=C/c2cn(CC(=O)Nc3ccc(O)cc3)c3ccccc23)c(=O)n(-c2ccccc2)n1C 4.30

----------
Each entry below carries its measured pIC50, system: Prostaglandin G/H synthase 1 (Ovis aries, UniProt P05979).
Sequence (P05979 whole entry): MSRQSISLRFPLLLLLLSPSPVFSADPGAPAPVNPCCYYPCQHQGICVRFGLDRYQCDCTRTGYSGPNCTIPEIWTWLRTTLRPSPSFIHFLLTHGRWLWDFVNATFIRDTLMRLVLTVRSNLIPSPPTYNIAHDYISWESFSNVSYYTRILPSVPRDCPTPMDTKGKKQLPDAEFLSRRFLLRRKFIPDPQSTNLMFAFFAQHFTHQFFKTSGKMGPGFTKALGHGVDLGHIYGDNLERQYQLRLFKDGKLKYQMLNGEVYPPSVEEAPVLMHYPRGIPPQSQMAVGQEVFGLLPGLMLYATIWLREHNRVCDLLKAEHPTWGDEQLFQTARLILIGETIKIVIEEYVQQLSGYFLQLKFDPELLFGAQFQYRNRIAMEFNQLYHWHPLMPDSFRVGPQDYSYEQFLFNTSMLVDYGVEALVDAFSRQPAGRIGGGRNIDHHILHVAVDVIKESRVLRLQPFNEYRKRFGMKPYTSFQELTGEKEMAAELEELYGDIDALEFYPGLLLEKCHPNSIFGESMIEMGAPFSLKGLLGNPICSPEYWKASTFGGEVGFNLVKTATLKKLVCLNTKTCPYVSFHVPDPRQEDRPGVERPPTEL
Notebook: values listed as pIC50 are -log10 of the concentration (mol/L).

1. Cc1c(/N=C/c2cn(C(=O)c3ccc(Cl)cc3)c3ccccc23)c(=O)n(-c2ccccc2)n1C: 5.03
2. O=C(c1ccc(Cl)cc1)n1cc(/C=N/n2cnnc2)c2ccccc21: 5.06
3. Cc1c(/N=C/c2cn(Cc3ccccc3)c3ccccc23)c(=O)n(-c2ccccc2)n1C: 4.95

Quick one: pIC50 of Cc1c(/N=C/c2cn(C(=O)c3ccccc3)c3ccccc23)c(=O)n(-c2ccccc2)n1C ? 5.12

----------
Test system: BJ
Assay: Cytotoxicity against human BJ cells assessed as reduction in cell viability after 72 hrs by calcein-AM staining based fluorescence analysis
pIC50: −log10 of the molar value.
Recorded endpoint: pIC50

Worked cases, answers included:
1. COc1ccc(NC(=O)Cn2cc(/C=N/n3cnnc3)c3ccccc32)cc1: < 4.30
2. CCOC(=O)c1ccc(NC(=O)Cn2cc(/C=N/n3cnnc3)c3ccccc32)cc1: 4.50
3. Cc1ccc(NC(=O)Cn2cc(/C=N/n3cnnc3)c3ccccc32)cc1: < 4.30
4. O=C(Cn1cc(/C=N/n2cnnc2)c2ccccc21)Nc1ccccc1: < 4.30

Moving on to another compound below.
I'd like to know its pIC50. The compound in question is O=C(Cn1cc(/C=N/n2cnnc2)c2ccccc21)Nc1ccc(O)cc1 < 4.30
